System: E. coli TOP10F’
METHOD SUMMARY: MIC broth microdilution
Type: cell-based
MEASUREMENT SETUP: Escherichia coli; screening strain; CAMHB, median of triplicates; read-out: MIC (μg/mL) E. coli TOP10F’
Procedure: The antibacterial activity of the compounds was determined by measuring their minimum inhibitory concentration (MIC) values using the broth microdilution method according to the Clinical and Laboratory Standards Institute guidelines (CLSI). Briefly, a single colony from blood agar plates was inoculated into cation-adjusted Mueller-Hinton broth (CAMHB) and grown to OD600 = 0.5. […]
MIC overview
Only the number, expressed in µg/mL, is required.

Completed entries (count: 3):
COMPOUND	VALUE OBSERVED
Cc1ncc(CNC2CCN(CCn3c(=O)ccc4ncc(OCc5ccnn5C)cc43)CC2)cc1Cl	2
O=c1ccc2ncc(=O)n3c2n1C[C@H]3CN1CCC(NCc2cc3c(cn2)OCCC3)CC1 [gepotidacin, Gepotidacin, reference compound]	0.06
COC1CN(CCn2c(=O)ccc3ncc(F)cc32)CCC1NCc1cc(F)c2c(c1)NC(=O)CO2 (centres unmarked)	0.06

For the next question, use this compound.
Ask: Sample CNn1cc(C(=O)O)c(=O)c2cc(F)c(N3CCN(C(C)C)CC3)cc21 — what was its MIC?
Reply: 0.125

###

Tested on: E. coli MC4100 FQR and GEPR mutants
METHOD SUMMARY: Growth kinetics on resistant mutants
Format: cell-based
MEASUREMENT SETUP: EC80 concentrations, Fig. S3
MEASURE: growth inhibition / susceptibility of GEPR mutant

COMPOUND	VALUE OBSERVED
CC(C)(C)n1cc(C(=O)O)c(=O)c2cc(F)c(N3CC4CC3CN4)nc21 (stereo not shown)	less susceptible
CCn1cc(C(=O)O)c(=O)c2cc(F)c(N3CCNC(C)C3)c(F)c21 (stereo not shown) [lomefloxacin, Lomefloxacin, reference compound]	less susceptible

###

System: Rcs cell envelope stress response in Escherichia coli
METHOD SUMMARY: Rcs stress reporter assay, HTS format, dose-response curves
Type: cell-based
MEASUREMENT SETUP: read-out: Max. effect (%)
Please respond with Y when measured Emax is strictly beneath 30%, and with N in all other cases.

COMPOUND	ASSIGNED CLASS
CNn1cc(C(=O)O)c(=O)c2cc(F)c(N3CCN(C(C)C)CC3)cc21	Y
CCc1cc(-c2c(F)cc3c(=O)c(C(=O)O)cn4c3c2OC[C@@H]4C)cc(C)n1	Y
Cc1ncc(CNC2CCN(CCn3c(=O)ccc4ncc(OCc5ccnn5C)cc43)CC2)cc1Cl	N
O=C1COc2ccc(CNC3CCN(CC4Cc5c(F)cc(F)c6ccc(=O)n4c56)CC3)nc2N1 (centres unmarked)	N
COC1CN(CCn2c(=O)ccc3ncc(F)cc32)CCC1NCc1cc(F)c2c(c1)NC(=O)CO2 (centres unmarked)	N

Ask: Dear reviewer, please state whether CC(C)(C)n1cc(C(=O)O)c(=O)c2cc(F)c(N3CC4CC3CN4)nc21 (centres unmarked) has Emax strictly beneath 30%.
Reply: Y

Ask: Emax strictly < 30% for this compound? CN(C)c1ccc(-c2nc(Cl)nc3cccnc23)cc1
Reply: N

Ask: Strictly below 30% in Emax? Cc1cc(-c2c(F)cc3c(=O)c(C(=O)O)cn(CCF)c3c2F)cc(C)n1
Reply: Y

###

Test system: P. aeruginosa 27853
METHOD SUMMARY: MIC broth microdilution
Format: cell-based
MEASUREMENT SETUP: Pseudomonas aeruginosa, clinical isolate, CAMHB, median of triplicates, read-out: MIC (μg/mL) P. aeruginosa 27853
MEASURE: MIC (µg/mL)
Value expressed in µg/mL; do not type the unit.

Would you please look over these solved cases?
MOLECULE	MIC (µg/mL)
CC(C)(C)n1cc(C(=O)O)c(=O)c2cc(F)c(N3CC4CC3CN4)nc21 (centres unmarked)	1
O=C1COc2ccc(CNC3CCN(CC4Cc5c(F)cc(F)c6ccc(=O)n4c56)CC3)nc2N1 (centres unmarked)	8
COC1CN(CCn2c(=O)ccc3ncc(F)cc32)CCC1NCc1cc(F)c2c(c1)NC(=O)CO2 (centres unmarked)	8
O=c1ccc2ncc(=O)n3c2n1C[C@H]3CN1CCC(NCc2cc3c(cn2)OCCC3)CC1 [gepotidacin, Gepotidacin, reference compound]	8
CNn1cc(C(=O)O)c(=O)c2cc(F)c(N3CCN(C(C)C)CC3)cc21	16
Cc1cc(-c2c(F)cc3c(=O)c(C(=O)O)cn(CCF)c3c2F)cc(C)n1	16

Next up:
Ask: So what's the measured MIC for this one? CCc1cc(-c2c(F)cc3c(=O)c(C(=O)O)cn4c3c2OC[C@@H]4C)cc(C)n1
Reply: 8

Value source: paper PMC12442099
